Value source: paper PMC11480844

B1: H2-Kb / G6 (parent)
chain 1: AQSVTQPDARVTVSEGASLQLRCKYSYFGTPYLFWYVQYPRQGLQLLLKYYPGDPVVQGVNGFEAEFSKSNSSFHLRKASVHWSDWAVYFCAVTPGGSNAKLTFGKGTKLSVKS
chain 2: NSGVVQSPRYIIKGKGERSILKCIPISGHLSVAWYQQTQGQELKFFIQHYDKMERDKGNLPSRFSVQQFDDYHSEMNMSALELEDSAVYFCASSRQGGDNNQAPLFGEGTRLSVL
chain 3: not shown
chain 4: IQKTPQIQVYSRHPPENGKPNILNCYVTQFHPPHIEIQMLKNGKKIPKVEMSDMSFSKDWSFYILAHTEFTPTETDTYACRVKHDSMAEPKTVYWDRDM
chain 5: SIINFEKL

variants of: B1; assay: % of reporter cells activated (NFAT-GFP), raw; details: with G6; scale: % of reporter cells activated; further: test concentration or dose not given here
readout type: ratio to parent

P = chain 5 L8S
Q = chain 5 L8W
R = chain 5 F5R
Query :: Task for the reader: rank each entry by its ratio to parent, from the minimum upward. Answer format: the labels, ordered as requested.
Result :: P, R, Q
(P: 0.086, R: 0.247, Q: 1.92)

P = chain 5 L8P
Q = chain 5 E6M
R = chain 5 S1P
Query :: Rank items: key ratio to parent, increasing. Answer format: the labels, ordered as requested.
Result :: P, Q, R
(P: 0.206, Q: 0.551, R: 1.48)

1 = chain 5 L8K
2 = chain 5 L8Q
Query :: Among 1 and 2 , whose measured ratio to parent is the smaller figure? Mark your answer with the label of the selected entry.
Result :: 2
